# Tested on: HEK-293T
# test description: Incucyte cell viability with HEK293T; also: unitless GR value; below 1 slowed growth and below 0 cell loss
# Assay type: toxicity, cell-based
# measurement parameters: human, 6 h, 10 µM, compound concentration 10 uM, replicate number 2, timepoint 6 hours
measurement kind: Growth Rate
// return just the number, without any unit appended

Sure, the documented Growth Rate for COCCn1c(C)c(C)s/c1=N\C(=O)C1C(C)(C)C1(C)C is 0.77

Sure, the documented Growth Rate for Cc1ccc(OCC(O)C(C)NC(C)C)c2c1CCC2.Cl (stereo not given) is 0.7

Sure, the documented Growth Rate for COc1ccc2nc3ccc(OC)cc3c(SCCCN)c2c1.Cl is 0.26

====

# Tested on: HEK-293T
# test description: Incucyte cell viability with HEK293T; also: unitless GR value; below 1 slowed growth and below 0 cell loss
# Format: toxicity, cell-based
# measurement parameters: human, 18 h, 10 µM, compound concentration 10 uM, replicate number 2, timepoint 18 hours
measurement kind: Growth Rate

Known Growth Rate results, listed for orientation:
>  <compound>
O=C(O)c1ccccc1S(=O)(=O)NCCCCN1C(=O)c2cccc3cccc(c23)C1=O

>  <experimental target>
HEK-293T

>  <value>
0.89

$$$$
>  <compound>
Cc1c(C(=O)Nc2ccc(N3C[C@@H](C)O[C@@H](C)C3)nc2)cccc1-c1ccc(OC(F)(F)F)cc1

>  <experimental target>
HEK-293T

>  <value>
-0.39

$$$$
>  <compound>
COC(=O)Nc1nc2ccc(C(=O)c3cccs3)cc2[nH]1

>  <experimental target>
HEK-293T

>  <value>
-0.34

$$$$

Sure, the documented Growth Rate for COc1ccc(NC(=O)c2ccc(-c3ccc(-c4noc(C)n4)cc3C)cc2)cc1OCCN(C)C.Cl is -0.31

Sure, the documented Growth Rate for CN(C(=O)c1ccccc1)c1cc(N(C)c2ccc3c(c2)CCc2ccc(C(=O)NCCN4CCOCC4)cc2C3=O)ccc1F is -0.15

Sure, the documented Growth Rate for CCc1nc2c(C)cc(C)nc2[nH]1 is 0.89

Sure, the documented Growth Rate for C[C@H]1CN(C[C@H](Cc2ccccc2)C(=O)NCC(=O)O)CC[C@@]1(C)c1cccc(O)c1 is 0.88

Sure, the documented Growth Rate for O=C(O)CCn1c2c(c3ccccc31)C[C@H](NS(=O)(=O)c1ccc(F)cc1)CC2 is 0.76

====

# Test system: HEK-293T
# test description: Incucyte cell viability with HEK293T; also: unitless GR value; below 1 slowed growth and below 0 cell loss
# Type: toxicity, cell-based
# measurement parameters: human, 6 h, 10 µM, compound concentration 10 uM, replicate number 1, timepoint 6 hours
Hi! Could you tag entries with Growth Rate below 0.3 as true, and those at or above as false? Much appreciated.

>  <molecule>
CNC(=O)c1nn(C)c2c1C(C)(C)Cc1cnc(Nc3ccc(N4CCN(C)CC4)cc3)nc1-2

>  <experimental target>
HEK-293T

>  <category label>
true

$$$$
>  <molecule>
O=C(O)CCC/C=C\CC1C(O)CC(O)C1/C=C/C(O)COc1cccc(Cl)c1 (stereo unspecified)

>  <experimental target>
HEK-293T

>  <category label>
false

$$$$
>  <molecule>
CC(=O)Nc1cccc2c1c(Sc1ccc(Cl)cc1)c(C)n2CC(=O)O

>  <experimental target>
HEK-293T

>  <category label>
false

$$$$
>  <molecule>
CCOC(=O)c1c(/C(C#N)=C\N)c2ccc(Cl)c(Cl)c2n1C

>  <experimental target>
HEK-293T

>  <category label>
false

$$$$
>  <molecule>
NC(=O)c1cc2c(-c3ccc(C(=O)NCc4ccnc(Cl)c4)s3)cccc2s1

>  <experimental target>
HEK-293T

>  <category label>
true

$$$$
>  <molecule>
Cl.FC(F)(F)c1ccc(N2CCNCC2)nc1Cl

>  <experimental target>
HEK-293T

>  <category label>
false

$$$$
>  <molecule>
CCC(C)n1ncn(-c2ccc(N3CCN(c4ccc(OC[C@@H]5CO[C@@](Cn6cncn6)(c6ccc(Cl)cc6Cl)O5)cc4)CC3)cc2)c1=O.CCC(C)n1ncn(-c2ccc(N3CCN(c4ccc(OC[C@H]5CO[C@](Cn6cncn6)(c6ccc(Cl)cc6Cl)O5)cc4)CC3)cc2)c1=O (stereo partly specified)

>  <experimental target>
HEK-293T

>  <category label>
true

$$$$
>  <molecule>
CCCCCCCCc1ccc(CC[C@](N)(CO)COP(=O)(O)O)cc1

>  <experimental target>
HEK-293T

>  <category label>
true

$$$$

Bench note: check whether O=C(NCCO)c1cccc(-c2cc(Nc3ccc(OC(F)(F)F)cc3)ncn2)c1 shows Growth Rate below 0.3
true

Bench note: check whether CCn1c(-c2nc3cc(C(=O)N4CCCC(N)C4)ccc3n2C)cc2ccccc21.Cl (stereo unspecified) shows Growth Rate below 0.3
false

Bench note: check whether COc1ccncc1C(=O)NC(=O)Nc1ccc(-c2ccccc2)c(C(F)(F)F)c1 shows Growth Rate below 0.3
true

Bench note: check whether CN[C@@H](C)C(=O)N[C@H]1CCCC[C@H]2CC[C@@H](C(=O)N[C@@H](c3ccccc3)c3cn(CCCCc4ccc(CCCCn5cc([C@@H](NC(=O)[C@@H]6CC[C@@H]7CCCC[C@H](NC(=O)[C@H](C)NC)C(=O)N76)c6ccccc6)nn5)cc4)nn3)N2C1=O shows Growth Rate below 0.3
false

Bench note: check whether Cc1ccccc1N1CCN(S(=O)(=O)C[C@]23CC[C@H](C[C@@H]2NC(=O)[C@@H](N)CCS(C)(=O)=O)C3(C)C)CC1.Cl shows Growth Rate below 0.3
false

Bench note: check whether OC[C@H]1O[C@@H](n2cnc3c(NC4CCCC4)ncnc32)[C@H](O)[C@@H]1O shows Growth Rate below 0.3
false

Bench note: check whether NCCc1c[nH]c2ccc(C(N)=O)cc12.O=C(O)/C=C\C(=O)O shows Growth Rate below 0.3
false

Bench note: check whether C[C@H](N)Cn1ccc2cc(F)c(Cl)cc21.O=C(O)/C=C/C(=O)O shows Growth Rate below 0.3
false
